# Test system: RXF 393 renal
# Assay name: NCI-60 one-dose screen, 48 h (100 = growth as untreated, 0 = no growth, -100 = all killed)
# Applied conditions: 10 µM unless noted
This is part of a sample that, as a whole, favours compounds with a hit. Of some 83,000 tested, about 20% had one in any assay.
Note to self: values exactly at 60% are met. So growth at or above 60% is met, below is not met.

These solved cases illustrate the format of a correct answer.
Line notation	Category
FC(F)(F)c1cccc(-c2[nH]ncc2-c2nnnn2-c2ccccc2)c1	not met
Cn1c2ccccc2c2ccccc21	met

Lookup: Determine whether measured growth meets or exceeds 60% for COc1ccc(/C=C(/C(=O)N2CCCCC2)c2cc(OC)c(OC)c(OC)c2)cc1
Found: not met

Lookup: Determine whether measured growth meets or exceeds 60% for O=C(O)c1occ(Cl)c1Cl
Found: met

Lookup: Determine whether measured growth meets or exceeds 60% for COc1ccc(-n2nnnc2-c2cn[nH]c2C(F)(F)F)cc1
Found: not met

Lookup: Determine whether measured growth meets or exceeds 60% for NC(N)=Nc1ccc(/C=C2\C=Cc3ccccc32)cc1
Found: met

Lookup: Determine whether measured growth meets or exceeds 60% for CC(=O)Nc1nc(C)c(C(=O)NN)s1
Found: met

Lookup: Determine whether measured growth meets or exceeds 60% for Oc1ccccc1\C=N/N=C/C=C/c1ccccc1
Found: met

Lookup: Determine whether measured growth meets or exceeds 60% for O=C(/C=C/c1ccc(Br)cc1)c1ccccc1
Found: met

Lookup: Determine whether measured growth meets or exceeds 60% for CCOC(=O)c1cc(C(=O)c2ccc(Br)cc2)n2cc(C)cc(C)c12
Found: met

Lookup: Determine whether measured growth meets or exceeds 60% for CC(=O)Nc1nc(C)c(C(=O)N/N=C/N2CCCCC2)s1
Found: met
